Test: amyloid nucleation score (Sup35N fusion, yeast selection) (log enrichment); library NNK2; higher = more nucleation; inactive = no reads after selection;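 note: zero at mode of non-aggregating sequences after 7 days selection at 30°C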
Class YES: amyloid nucleation score at least 0.3. Class NO: amyloid nucleation score below 0.3.

Here are 3 sequences together with their reported answers.
> print(dat)
       sequence.content  class.assignment
1  MIKYYVSHNPRWHSRWCNSQ               YES
2            KIRTNALYLL                NO
3  FTIYCSYIFCQCWDTSEKSK               YES

Q: Determine whether measured amyloid nucleation score meets or exceeds 0.3 for YTCRYRFTLNQTSSRRFSFW
Ans: YES

Q: Determine whether measured amyloid nucleation score meets or exceeds 0.3 for CFSLRVENSVRRTTTHPCLD
Ans: YES

Q: Determine whether measured amyloid nucleation score meets or exceeds 0.3 for FYFIIWNSLRPILRLSVAPV
Ans: NO

Q: Determine whether measured amyloid nucleation score meets or exceeds 0.3 for FVSEINVTSGD
Ans: YES

Q: Determine whether measured amyloid nucleation score meets or exceeds 0.3 for RYGAMKLDTSKS
Ans: NO

Q: Determine whether measured amyloid nucleation score meets or exceeds 0.3 for IDDVEGPVAPFGIATVQDQP
Ans: YES

Q: Determine whether measured amyloid nucleation score meets or exceeds 0.3 for YGQIITSEKNRRNYMCPFSG
Ans: NO

Q: Determine whether measured amyloid nucleation score meets or exceeds 0.3 for FASALNYTLYWSSSLTLFAL
Ans: YES

Q: Determine whether measured amyloid nucleation score meets or exceeds 0.3 for HISCMKLLSRLGYTCESLMW
Ans: NO

Q: Determine whether measured amyloid nucleation score meets or exceeds 0.3 for KWSYSPVGKHYLYMMWDGHS
Ans: YES

Q: Determine whether measured amyloid nucleation score meets or exceeds 0.3 for PSIDSCRGRLVVRVQIRVEN
Ans: NO

Q: Determine whether measured amyloid nucleation score meets or exceeds 0.3 for TLYSVSLGKEFYYG
Ans: NO

Q: Determine whether measured amyloid nucleation score meets or exceeds 0.3 for HRVSMKEGVEC
Ans: NO

Q: Determine whether measured amyloid nucleation score meets or exceeds 0.3 for WLWIKLEPLICSNFCWVVLW
Ans: YES

Q: Determine whether measured amyloid nucleation score meets or exceeds 0.3 for NPYIINLFCYKIVRLGAIFT
Ans: YES

Q: Determine whether measured amyloid nucleation score meets or exceeds 0.3 for MTRVSQFVVVP
Ans: YES

Q: Determine whether measured amyloid nucleation score meets or exceeds 0.3 for CILRPSLSFFHMPLR
Ans: YES

Q: Determine whether measured amyloid nucleation score meets or exceeds 0.3 for PTGYILESTYFTGQGKCAGL
Ans: NO

Q: Determine whether measured amyloid nucleation score meets or exceeds 0.3 for AYHRWSTVLWILTYWTLRMC
Ans: NO

Q: Determine whether measured amyloid nucleation score meets or exceeds 0.3 for CAVGDPYCSAMFMMNLWGEK
Ans: YES

Q: Determine whether measured amyloid nucleation score meets or exceeds 0.3 for GSLKCDAHLG
Ans: YES

Q: Determine whether measured amyloid nucleation score meets or exceeds 0.3 for ILIREPLHDIGNVNLLVRSS
Ans: NO

Q: Determine whether measured amyloid nucleation score meets or exceeds 0.3 for QYSTFATNRVFSKAIMHLSG
Ans: NO
